// provenance: patent US10829506B2

tested on: RBL-2H3 cells; assay: Maximum tolerated concentration (cytotoxicity by lactate dehydrogenase release); type: cell-based, rat; settings: highest concentration not causing cytotoxicity, LDH release
Measured Metric: MTC (maximum tolerated concentration) (µM)
Write down the numeric answer in µM and omit the unit.

Use these answered entries as a reference point.
INSERT INTO measurements (molecule, measured_target, meas_value) VALUES
  ('CCCCCCCCCCCCCCCCN(C)CCCP(=O)(O)O [Compound 1v]', 'RBL-2H3 cells', 200),
  ('CCCCCCCCCCCCCCN(C)CCCP(=O)(O)O [Compound 1u]', 'RBL-2H3 cells', 200);

Task item: Query (molecule): CCCCCCCCCCCCCC[N+](C)(C)CCCP(=O)([O-])O [Compound 1c] ; field requested: MTC (maximum tolerated concentration)
Reply: 200

* * *

system: RBL-2H3 cells; test: Maximum tolerated concentration (cytotoxicity by lactate dehydrogenase release); assay type: cell-based, rat; settings: highest concentration not causing cytotoxicity, LDH release
Measured Metric: MTC (maximum tolerated concentration) (µM)
Write down the numeric answer in µM and omit the unit.

INSERT INTO measurements (molecule, measured_metric, meas_value) VALUES
  ('CCCCCCCCCCCC[N+](C)(C)CCC(=O)[O-] [Compound 1m, 3-(Dimethyl(Dodecyl)Ammonio)Propanoate]', 'MTC (maximum tolerated concentration)', 100),
  ('Br.CCCCCCCCCCCCCCN(C)CCCP(=O)(OCC)OCC', 'MTC (maximum tolerated concentration)', 100),
  ('Br.CCCCCCCCCCCCCCCCN(C)CCCP(=O)(OCC)OCC', 'MTC (maximum tolerated concentration)', 200);

Task item: Query (molecule): CCCCCCCCCCCCCCN(C)CCCC(=O)O [Compound 1n, 4-(Methyl(Tetradecyl)Ammonio)Butanoate] ; field requested: MTC (maximum tolerated concentration)
Reply: 100

Task item: Query (molecule): `CCCCCCCCCCCC[N+](C)(C)CCS(=O)(=O)[O-]` ; field requested: MTC (maximum tolerated concentration)
Reply: 200

Task item: Query (molecule): `CCCCCCCCCCCCCCN(C)CCS(=O)(=O)O` ; field requested: MTC (maximum tolerated concentration)
Reply: 100

Task item: Query (molecule): CCCCCCCCCCCCCCCC[N+]1(CCCS(=O)(=O)[O-])CCC(O)CC1 (stereo not drawn) ; field requested: MTC (maximum tolerated concentration)
Reply: 50

Task item: Query (molecule): `CCCCCCCCCCCCCC[N+](C)(C)CC(=O)[O-]` ; field requested: MTC (maximum tolerated concentration)
Reply: 75

Task item: Query (molecule): `CCCCCCCCCCCCCC[N+](C)(C)CCCS(=O)(=O)[O-]` ; field requested: MTC (maximum tolerated concentration)
Reply: 100

Task item: Query (molecule): `CCCCCCCCCCCCN(C)CCS(=O)(=O)O` ; field requested: MTC (maximum tolerated concentration)
Reply: 200

* * *

Tested on: RBL-2H3 cells
Test: Maximum tolerated concentration (cytotoxicity by lactate dehydrogenase release)
Assay type: cell-based, rat
Source text: A commercially available cytotoxicity test was used (Promega Cytotox-One cat. #67891). The safety index (SI) of a test compound Is the ratio between the maximum tolerated concentration and the 1C50 and is used as a measure of the relative safety of the test compound.
Measured Metric: MTC (maximum tolerated concentration) (µM)
Write down the numeric answer in µM and omit the unit.

Use these answered entries as a reference point.
INSERT INTO assay_data (chemical_structure, measured_target, meas_value) VALUES
  ('CCCCCCCCCCCC[N+](C)(C)CCCS(=O)(=O)[O-]', 'RBL-2H3 cells', 200),
  ('CCCCCCCCCCCCCC[N+](C)(C)CCCCS(=O)(=O)[O-]', 'RBL-2H3 cells', 150),
  ('CCCCCCCCCCCCCCN(C)CCCS(=O)(=O)O', 'RBL-2H3 cells', 100),
  ('CCCCCCCCCCCC[N+](C)(C)CC(=O)[O-]', 'RBL-2H3 cells', 100);

Task item: Query (compound): `CCCCCCCCCCCCCCCC[N+](C)(C)CCCS(=O)(=O)[O-]` ; field requested: MTC (maximum tolerated concentration)
Reply: 50
